# maps each entry to its EC50
- testedSystem: T1, Human TROP2 ECD (31-274 AA), biotinylated (human, UniProt P09758 31-274, biotinylated (site not stated))
- T1 construct: also called tumor-associated calcium signal transducer 2; Human TROP2-biotin
- T1 sequence: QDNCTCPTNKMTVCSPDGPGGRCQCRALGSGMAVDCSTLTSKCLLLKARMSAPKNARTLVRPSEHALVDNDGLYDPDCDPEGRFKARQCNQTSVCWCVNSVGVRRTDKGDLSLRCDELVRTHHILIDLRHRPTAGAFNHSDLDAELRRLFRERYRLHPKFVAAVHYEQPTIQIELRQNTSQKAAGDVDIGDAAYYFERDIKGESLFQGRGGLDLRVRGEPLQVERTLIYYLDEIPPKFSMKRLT
- testProtocol: ELISA, biotinylated TROP2 ECD on neutravidin plate, Fab titrated
Unit nM implied. Number only.

Example entries and their recorded answers appear below.
TBD-21 (anti-TROP2 Fab, HC F108A) (Fab, V domains shown, also called TBD-21 (HC F108A mutant)) VH: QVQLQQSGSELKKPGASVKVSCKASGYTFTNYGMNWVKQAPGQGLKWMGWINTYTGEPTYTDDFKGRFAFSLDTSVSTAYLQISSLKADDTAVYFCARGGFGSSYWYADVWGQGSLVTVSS VL: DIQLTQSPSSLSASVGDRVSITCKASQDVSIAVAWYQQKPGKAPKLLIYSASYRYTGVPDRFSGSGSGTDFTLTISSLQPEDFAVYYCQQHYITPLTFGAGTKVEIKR    4.1
TBD-19 (anti-TROP2 Fab, HC W106A) (Fab, V domains shown) VH: QVQLQQSGSELKKPGASVKVSCKASGYTFTNYGMNWVKQAPGQGLKWMGWINTYTGEPTYTDDFKGRFAFSLDTSVSTAYLQISSLKADDTAVYFCARGGFGSSYAYFDVWGQGSLVTVSS VL: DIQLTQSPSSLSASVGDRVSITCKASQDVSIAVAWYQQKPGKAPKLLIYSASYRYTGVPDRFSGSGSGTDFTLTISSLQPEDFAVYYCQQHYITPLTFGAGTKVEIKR    702

What EC50 value was documented for this binder, TBD-18 (anti-TROP2 Fab, HC Y105A) (Fab, V domains shown) VH: QVQLQQSGSELKKPGASVKVSCKASGYTFTNYGMNWVKQAPGQGLKWMGWINTYTGEPTYTDDFKGRFAFSLDTSVSTAYLQISSLKADDTAVYFCARGGFGSSAWYFDVWGQGSLVTVSS VL: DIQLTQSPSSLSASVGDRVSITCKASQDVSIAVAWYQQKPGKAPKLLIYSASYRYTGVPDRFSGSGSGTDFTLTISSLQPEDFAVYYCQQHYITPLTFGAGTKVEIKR ?
801

What EC50 value was documented for this binder, TBD-17 (anti-TROP2 Fab, HC S104A) (Fab, V domains shown, also called TBD-17 (HC S104A mutant)) VH: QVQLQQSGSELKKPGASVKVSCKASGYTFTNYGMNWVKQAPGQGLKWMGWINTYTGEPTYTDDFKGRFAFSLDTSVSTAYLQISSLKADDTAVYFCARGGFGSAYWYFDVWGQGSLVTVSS VL: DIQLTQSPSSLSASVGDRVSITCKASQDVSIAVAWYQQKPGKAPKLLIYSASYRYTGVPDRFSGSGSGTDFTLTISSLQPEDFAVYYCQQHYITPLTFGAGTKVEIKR ?
0.4

What EC50 value was documented for this binder, TBD-20 (anti-TROP2 Fab, HC Y107A) (Fab, V domains shown) VH: QVQLQQSGSELKKPGASVKVSCKASGYTFTNYGMNWVKQAPGQGLKWMGWINTYTGEPTYTDDFKGRFAFSLDTSVSTAYLQISSLKADDTAVYFCARGGFGSSYWAFDVWGQGSLVTVSS VL: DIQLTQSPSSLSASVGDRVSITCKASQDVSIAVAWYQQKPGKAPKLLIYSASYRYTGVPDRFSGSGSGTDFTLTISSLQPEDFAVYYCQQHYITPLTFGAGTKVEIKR ?
52.3

What EC50 value was documented for this binder, TBD-22 (anti-TROP2 Fab, HC D109A) (Fab, V domains shown, also called TBD-22 (HC D109A mutant)) VH: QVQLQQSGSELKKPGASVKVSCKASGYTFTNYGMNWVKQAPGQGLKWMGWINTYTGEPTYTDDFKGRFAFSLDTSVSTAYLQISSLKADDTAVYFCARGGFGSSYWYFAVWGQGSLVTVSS VL: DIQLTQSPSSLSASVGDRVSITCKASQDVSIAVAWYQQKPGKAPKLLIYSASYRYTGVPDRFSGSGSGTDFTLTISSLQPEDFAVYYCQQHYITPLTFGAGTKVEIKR ?
1.1

What EC50 value was documented for this binder, TBD-23 (anti-TROP2 Fab, HC V110A) (Fab, V domains shown) VH: QVQLQQSGSELKKPGASVKVSCKASGYTFTNYGMNWVKQAPGQGLKWMGWINTYTGEPTYTDDFKGRFAFSLDTSVSTAYLQISSLKADDTAVYFCARGGFGSSYWYFDAWGQGSLVTVSS VL: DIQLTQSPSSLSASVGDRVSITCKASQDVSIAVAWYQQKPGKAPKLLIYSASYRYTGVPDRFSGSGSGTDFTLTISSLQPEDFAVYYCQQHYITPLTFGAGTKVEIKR ?
0.2
